Test system: T98 (p53 mutant) glioblastoma cells
Method Notes: MTT cytotoxic activity assay, T98 cells
Type: cell-based, human
Condition Context: Radioactive (neutron activated form); SI = IC50 MRC5/IC50 tumor cell
Reported Selectivity index T98 is given for each of the following compounds.
Write the number on its own, no unit after it.

# count of solved cases: 2
{"columns": ["Compound", "Recorded Measurement"],
 "data": [
  ["F[P-](F)(F)(F)(F)F.O=C([O-])c1ccccn1.[Ru+2].c1ccc(-c2ccccn2)nc1.c1ccc(P(CCP(c2ccccc2)c2ccccc2)c2ccccc2)cc1 [[Ru(pic)(bipy)(dppe)]PF6 (2), [Ru(pic)(bipy)(dppe)]PF6]", 0.39],
  ["F[P-](F)(F)(F)(F)F.O=C([O-])c1ccccn1.[Fe+2].[Ru+2].c1ccc(-c2ccccn2)nc1.c1ccc(P(c2ccccc2)[c-]2cccc2)cc1.c1ccc(P(c2ccccc2)[c-]2cccc2)cc1 [[Ru(pic)(bipy)(dppf)]PF6 (3), [Ru(pic)(bipy)(dppf)]PF6]", 0.70]
]}

// lookup Selectivity index T98 for F[P-](F)(F)(F)(F)F.O=C([O-])c1ccccn1.[Ru+2].c1ccc(-c2ccccn2)nc1.c1ccc(P(CCCP(c2ccccc2)c2ccccc2)c2ccccc2)cc1 [[Ru(pic)(bipy)(dppp)]PF6 (4), [Ru(pic)(bipy)(dppp)]PF6]
0.76

// lookup Selectivity index T98 for F[P-](F)(F)(F)(F)F.O=C([O-])c1ccccn1.[Ru+2].c1ccc(-c2ccccn2)nc1.c1ccc(P(CCCCP(c2ccccc2)c2ccccc2)c2ccccc2)cc1 [[Ru(pic)(bipy)(dppb)]PF6 (1), [Ru(pic)(bipy)(dppb)]PF6]
1.14
